Assay: Plasma pharmacokinetics on Cycle 1 Day 15, noncompartmental
Type: in vivo, human
Settings: human, plasma, oral, 150 mg, 150 mg MMB BID n = 1; steady state, plasma; read-out: T 1/2 (converted)
metric-name: half-life (h)

N#CCNC(=O)c1ccc(-c2ccnc(Nc3ccc(N4CCOCC4)cc3)n2)cc1 = 5

* * *

Assay: Plasma pharmacokinetics on Cycle 1 Day 15, noncompartmental
Format: in vivo, human
Conditions: human, plasma, oral, 150 mg, 150 mg MMB QD n = 3; steady state, plasma; median (first quarter, third quarter); read-out: Tmax
metric-name: Tmax (h)

N#CCNC(=O)c1ccc(-c2ccnc(Nc3ccc(N4CCOCC4)cc3)n2)cc1 = 3.2
